System: Fibroblast
Test Name: Multiplex assay against human fibroblast
Assay type: toxicity, cell-based
Settings: 24 h, 1 µM, compound concentration 1 uM, replicate 1
This section presents molecules with their documented Total Cell Count values.

# Molecule, Total Cell Count
records = [
    ("CCc1nn2c(C)cc(C)nc2c1Cc1ccc(-c2nnc(C3CCNCC3)o2)cc1", 153),
    ("CCCCCCNC(=O)Nc1ccc(S(=O)(=O)Nc2ccc(CCNC[C@H](O)COc3ccc(O)cc3)cc2)cc1 [L-755507]", 196),
    ("COc1c(Nc2ccc(S(C)(=O)=O)nc2C)ncnc1OC1CCN(C(=O)OC(C)C)CC1 [ADP-597]", 146),
    ("COc1cc2nc(N3CCN(C(=O)c4ccco4)CC3)nc(N)c2cc1OC.Cl [PRAZOSIN HYDROCHLORIDE]", 181),
    ("S=C(NCCCc1c[nH]cn1)NCCCN(Cc1ccc(Cl)c(Cl)c1)c1ccc(Br)cn1", 137),
    ("CCC(=O)OCC(=O)[C@@]1(OC(=O)CC)[C@@H](C)C[C@H]2[C@@H]3CCC4=CC(=O)C=C[C@]4(C)[C@@]3(Cl)[C@@H](O)C[C@@]21C [BECLOMETHASONE DIPROPIONATE]", 134),
    ("O=C(Nc1cc(-c2ccccc2)nn1-c1ccccc1F)c1ccc([N+](=O)[O-])cc1", 135),
    ("OCCCNc1cc(-c2ccnc(Nc3cccc(Cl)c3)n2)ccn1", 136),
]
